System: livid amaranth
ASSAY_EXPLANATION: Selective herbicide effect test to field crop (foliage spray treatment after germination), Test example 4, herbicide effect
Assay type: in vivo
TEST_SETTINGS: 320 g/ha, 14 days after spraying, 100% = complete death, 0% = no effect
Please respond with reported Herbicide effect, Livid amaranth for every item in the list.
I only need the number, in %, no unit after it.

Reported Herbicide effect, Livid amaranth, compound `CS(=O)(=O)Cc1nc(-n2cncn2)ccc1C(=O)C1=C(O)CCCC1=O` : ____ 80

Reported Herbicide effect, Livid amaranth, compound `CSCc1nc(-n2cncn2)ccc1C(=O)C1=C(O)CCCC1=O` : ____ 80

Reported Herbicide effect, Livid amaranth, compound `COCCOCc1nc(-n2cncn2)ccc1C(=O)C1=C(O)CCCC1=O` : ____ 100

Reported Herbicide effect, Livid amaranth, compound `Cc1nc(-n2cncn2)ccc1C(=O)C1=C(O)CCC(C)(C)C1=O` : ____ 100

Reported Herbicide effect, Livid amaranth, compound `Cc1nc(-n2cncn2)ccc1C(=O)c1c(C)nn(C)c1O` : ____ 100

* * *

Please respond with reported herbicide effect, Southern crabgrass for every item in the list.
Tested on: southern crabgrass (Digitaria)
ASSAY_EXPLANATION: Selective herbicide effect test to field crop (soil spray treatment before germination), Test example 3, herbicide effect
Format: in vivo
TEST_SETTINGS: dosage 320 g/ha, 2 weeks after treatment, 100% = complete death
I only need the number, in %, no unit after it.

Reported herbicide effect, Southern crabgrass, compound Cc1nc(-n2cncn2)ccc1C(=O)c1cnoc1C1CC1 [3-115] : ____ 100

Reported herbicide effect, Southern crabgrass, compound Cc1nc(-n2cncn2)ccc1C(=O)C1C(=O)CCCC1=O [1-1] : ____ 100

Reported herbicide effect, Southern crabgrass, compound O=C1CCCC(O)=C1C(=O)c1ccc(-n2cncn2)nc1COCC(F)(F)F [1-28] : ____ 100

Reported herbicide effect, Southern crabgrass, compound Cc1nc(-n2cncn2)ccc1C(=O)C1=C(O)CCC(C)C1=O (stereo not shown) [1-115] : ____ 100

* * *

Tested on: Green bristle grass
ASSAY_EXPLANATION: Herbicide effect test against field weed (foliage spray treatment after germination), Test example 2
Type: in vivo
TEST_SETTINGS: foliage spray treatment after germination (2nd-3rd leaf stage); dosage 500 g ai/ha; 2 weeks after treatment; 100% = complete death
Procedure: • Preparing preparation of active compound • Carrier: DMF 5 parts by weight • Emulsifier: benzyloxy polyglycol ether 1 part by weight […] In a greenhouse, seeds of field weeds [livid amaranth (Amaranthus), green bristle grass (Setaria)] were sown on the surface layer of 16 cm^2 pots filled with field soil (sandy loam) , and covered with soil. […] In the evaluation of herbicide effect, complete death was evaluated as 100%, and the case of no herbicide effect was evaluated as 0%. […]
QUANTITY_KIND: Herbicide effect, Green bristle grass
Form field: result (number plus unit)

Reported Herbicide effect, Green bristle grass, compound CSCc1nc(-n2cncn2)ccc1C(=O)C1=C(O)CCCC1=O [1-36] : ____ 100%

Reported Herbicide effect, Green bristle grass, compound Cc1nc(-n2cncn2)ccc1C(=O)c1cnoc1C1CC1 [3-115] : ____ 100%

Reported Herbicide effect, Green bristle grass, compound Cc1nc(-n2cncn2)ccc1C(=O)C1=C(O)CCC(C)C1=O (centres unmarked) [1-115] : ____ 100%

Reported Herbicide effect, Green bristle grass, compound Cc1nc(-n2cncn2)ccc1C(=O)C1=C(O)CCC(C)(C)C1=O [1-457] : ____ 100%

Reported Herbicide effect, Green bristle grass, compound COCCOCc1nc(-n2cncn2)ccc1C(=O)C1=C(O)CCCC1=O [1-66] : ____ 90%

* * *

System: soy bean
ASSAY_EXPLANATION: Selective herbicide effect test to field crop (foliage spray treatment after germination), Test example 4, phytotoxicity
Assay type: in vivo
TEST_SETTINGS: 320 g/ha, 14 days after spraying, 100% = complete death, 0% = no phytotoxicity
QUANTITY_KIND: phytotoxicity, Soy bean

Reported phytotoxicity, Soy bean, molecule CSCc1nc(-n2cncn2)ccc1C(=O)C1=C(O)CCCC1=O [1-36] : ____ 50%

Reported phytotoxicity, Soy bean, molecule COCCOCc1nc(-n2cncn2)ccc1C(=O)C1=C(O)CCCC1=O [1-66] : ____ 50%

Reported phytotoxicity, Soy bean, molecule CS(=O)(=O)Cc1nc(-n2cncn2)ccc1C(=O)C1=C(O)CCCC1=O [1-56] : ____ 50%

Reported phytotoxicity, Soy bean, molecule Cc1nc(-n2cncn2)ccc1C(=O)C1=C(O)CCC(C)(C)C1=O [1-457] : ____ 40%

Reported phytotoxicity, Soy bean, molecule Cc1nc(-n2cncn2)ccc1C(=O)c1c(C)nn(C)c1O [2-229] : ____ 60%

* * *

Tested on: corn
ASSAY_EXPLANATION: Selective herbicide effect test to field crop (foliage spray treatment after germination), Test example 4, phytotoxicity
Assay type: in vivo
TEST_SETTINGS: 320 g/ha, 14 days after spraying, 100% = complete death, 0% = no phytotoxicity
QUANTITY_KIND: phytotoxicity, Corn (%)
I only need the number, in %, no unit after it.

Reported phytotoxicity, Corn, molecule `CS(=O)(=O)Cc1nc(-n2cncn2)ccc1C(=O)C1=C(O)CCCC1=O` : ____ 50

Reported phytotoxicity, Corn, molecule `CSCc1nc(-n2cncn2)ccc1C(=O)C1=C(O)CCCC1=O` : ____ 10

Reported phytotoxicity, Corn, molecule `Cc1nc(-n2cncn2)ccc1C(=O)C1=C(O)CCC(C)(C)C1=O` : ____ 50

Reported phytotoxicity, Corn, molecule `COCCOCc1nc(-n2cncn2)ccc1C(=O)C1=C(O)CCCC1=O` : ____ 50

Reported phytotoxicity, Corn, molecule `Cc1nc(-n2cncn2)ccc1C(=O)c1c(C)nn(C)c1O` : ____ 50

* * *

Please respond with reported phytotoxicity, Wheat for every item in the list.
System: wheat
ASSAY_EXPLANATION: Selective herbicide effect test to field crop (foliage spray treatment after germination), Test example 4, phytotoxicity
Type: in vivo
TEST_SETTINGS: 320 g/ha, 14 days after spraying, 100% = complete death, 0% = no phytotoxicity
I only need the number, in %, no unit after it.

Reported phytotoxicity, Wheat, compound `Cc1nc(-n2cncn2)ccc1C(=O)c1c(C)nn(C)c1O` : ____ 10

Reported phytotoxicity, Wheat, compound `Cc1nc(-n2cncn2)ccc1C(=O)C1=C(O)CCC(C)(C)C1=O` : ____ 20

Reported phytotoxicity, Wheat, compound `CS(=O)(=O)Cc1nc(-n2cncn2)ccc1C(=O)C1=C(O)CCCC1=O` : ____ 0

Reported phytotoxicity, Wheat, compound `CSCc1nc(-n2cncn2)ccc1C(=O)C1=C(O)CCCC1=O` : ____ 0

Reported phytotoxicity, Wheat, compound `COCCOCc1nc(-n2cncn2)ccc1C(=O)C1=C(O)CCCC1=O` : ____ 10
